system-name: Aldo-keto reductase family 1 member C1 (Homo sapiens, UniProt Q04828)
Sequence (Q04828 whole entry): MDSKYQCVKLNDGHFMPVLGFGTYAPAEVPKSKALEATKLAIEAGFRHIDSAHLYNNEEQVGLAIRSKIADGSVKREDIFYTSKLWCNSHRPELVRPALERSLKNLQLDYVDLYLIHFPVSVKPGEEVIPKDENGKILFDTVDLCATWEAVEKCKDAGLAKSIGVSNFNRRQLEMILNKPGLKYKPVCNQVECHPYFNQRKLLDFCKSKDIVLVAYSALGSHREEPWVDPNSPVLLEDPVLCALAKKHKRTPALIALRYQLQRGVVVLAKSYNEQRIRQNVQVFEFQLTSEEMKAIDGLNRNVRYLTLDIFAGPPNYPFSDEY
assay-overview: Inhibition of recombinant human AKR1C1 expressed in Escherichia coli BL21 cells in presence of 9,10-phenanthrenequinone and NADPH by fluorescence assay
Measured pIC50, listed per entry.
Scale note: pIC50 = -log10(concentration in M).

# compound, pIC50
rows = [
    ("CCc1n[nH]c2c1C(c1cc(OC)c(O)c([N+](=O)[O-])c1)C(C#N)=C(N)O2 (stereo not drawn)", 6.10),
    ("CCCc1nn(C2CCCC2)c2c1C(c1cc(OC)c(O)c([N+](=O)[O-])c1)C(C#N)=C(N)O2 (stereo not drawn)", 5.98),
    ("COc1cc(C2C(C#N)=C(N)Oc3[nH]nc(CCC4CCCC4)c32)cc([N+](=O)[O-])c1O (stereo not drawn)", 6.36),
]

What the record says about CCCCCCCc1n[nH]c2c1C(c1cc(OC)c(O)c([N+](=O)[O-])c1)C(C#N)=C(N)O2 (stereo not drawn) : pIC50 is 5.92

Quick note, pIC50 for CCCc1nn(C2CCOC2)c2c1C(c1cc(OC)c(O)c([N+](=O)[O-])c1)C(C#N)=C(N)O2 (stereo not drawn) landed at 5.96
